Every entry's value here was drawn from paper PMC10006169.

# protocol.summary: Plasma pharmacokinetics (LC-MS/MS)
# Assay type: in vivo, human
# run.parameters: human, plasma, oral, 1000 mg, C1D1, 1000 mg QD, n=3; read-out: AUCinf, Geo-mean
endpoint.name: AUC(0-inf) (ng·h/mL)
Give bare numbers, in ng·h/mL.

Need AUC(0-inf), item CC1(N)CCN(c2cccnc2NC(=O)c2nc(-c3ncccc3C(F)(F)F)cnc2N)CC1 75700

----------
# protocol.summary: Plasma pharmacokinetics (LC-MS/MS)
# Type: in vivo, human
# run.parameters: human, plasma, oral, 300 mg, C1D1, 300 mg BID, n=16; read-out: AUCinf, Median (Min, max)
endpoint.name: AUC(0-inf) (ng·h/mL)
Answers are plain numbers, in ng·h/mL.

Need AUC(0-inf), item CC1(N)CCN(c2cccnc2NC(=O)c2nc(-c3ncccc3C(F)(F)F)cnc2N)CC1 28400

----------
# protocol.summary: Plasma pharmacokinetics (LC-MS/MS)
# Format: in vivo, human
# run.parameters: human, plasma, oral, 500 mg, C1D1, 500 mg QD, n=10; read-out: AUC0-t, Geo-mean
endpoint.name: AUC(0-t) (ng·h/mL)
One number for each entry, in ng·h/mL.

Need AUC(0-t), item CC1(N)CCN(c2cccnc2NC(=O)c2nc(-c3ncccc3C(F)(F)F)cnc2N)CC1 48000

----------
# protocol.summary: Plasma pharmacokinetics (LC-MS/MS)
# Format: in vivo, human
# run.parameters: human, plasma, oral, 300 mg, C1D1, 300 mg QD, n=15; read-out: AUC0-t, Geo-mean
endpoint.name: AUC(0-t) (ng·h/mL)
Give bare numbers, in ng·h/mL.

Need AUC(0-t), item CC1(N)CCN(c2cccnc2NC(=O)c2nc(-c3ncccc3C(F)(F)F)cnc2N)CC1 [LXS196] 34000

----------
# protocol.summary: Plasma pharmacokinetics (LC-MS/MS)
# Type: in vivo, human
# run.parameters: human, plasma, oral, 400 mg, C1D15, 400 mg BID, n=4; read-out: Cmax, Geo-mean
# Protocol: In the dose escalation part of the study, PK samples were collected at various pre- and post-dose time points on C1D1, D2, D3, D15 and D16. Drug concentrations were assessed using a validated liquid chromatography-tandem mass spectrometry assay.
endpoint.name: Cmax (ng/mL)
Answers are plain numbers, in ng/mL.

Need Cmax, item CC1(N)CCN(c2cccnc2NC(=O)c2nc(-c3ncccc3C(F)(F)F)cnc2N)CC1 [LXS196] 2070

----------
# protocol.summary: Plasma pharmacokinetics (LC-MS/MS)
# Assay type: in vivo, human
# run.parameters: human, plasma, oral, 300 mg, C1D1, 300 mg BID, n=17; read-out: AUC0-t, Geo-mean
endpoint.name: AUC(0-t)

Need AUC(0-t), item CC1(N)CCN(c2cccnc2NC(=O)c2nc(-c3ncccc3C(F)(F)F)cnc2N)CC1 [LXS196] 18700 ng·h/mL

----------
# protocol.summary: Plasma pharmacokinetics (LC-MS/MS)
# Format: in vivo, human
# run.parameters: human, plasma, oral, 300 mg, C1D15, 300 mg QD, n=14; read-out: Tmax, Median (Min, max)
endpoint.name: Tmax (h)
Answers are plain numbers, in h.

Need Tmax, item CC1(N)CCN(c2cccnc2NC(=O)c2nc(-c3ncccc3C(F)(F)F)cnc2N)CC1 [LXS196] 1

----------
# protocol.summary: Plasma pharmacokinetics (LC-MS/MS)
# Format: in vivo, human
# run.parameters: human, plasma, oral, 400 mg, C1D1, 400 mg BID, n=5; read-out: AUC0-t, Geo-mean
endpoint.name: AUC(0-t)
Write the quantity with the unit trailing the number.

Need AUC(0-t), item CC1(N)CCN(c2cccnc2NC(=O)c2nc(-c3ncccc3C(F)(F)F)cnc2N)CC1 16800 ng·h/mL

----------
# protocol.summary: Plasma pharmacokinetics (LC-MS/MS)
# Assay type: in vivo, human
# run.parameters: human, plasma, oral, 1000 mg, C1D1, 1000 mg QD, n=4; read-out: AUC0-t, Mean (SD)
endpoint.name: AUC(0-t) (ng·h/mL)
Numbers only, in ng·h/mL.

Need AUC(0-t), item CC1(N)CCN(c2cccnc2NC(=O)c2nc(-c3ncccc3C(F)(F)F)cnc2N)CC1 74300

----------
# protocol.summary: Plasma pharmacokinetics (LC-MS/MS)
# Assay type: in vivo, human
# run.parameters: human, plasma, oral, 300 mg, C1D1, 300 mg BID, n=17; read-out: AUC0-t, Median (Min, max)
endpoint.name: AUC(0-t) (ng·h/mL)
One number for each entry, in ng·h/mL.

Need AUC(0-t), item CC1(N)CCN(c2cccnc2NC(=O)c2nc(-c3ncccc3C(F)(F)F)cnc2N)CC1 [LXS196] 17000

----------
# protocol.summary: Plasma pharmacokinetics (LC-MS/MS)
# Format: in vivo, human
# run.parameters: human, plasma, oral, 500 mg, C1D1, 500 mg QD, n=10; read-out: Cmax, Geo-mean
endpoint.name: Cmax

Need Cmax, item CC1(N)CCN(c2cccnc2NC(=O)c2nc(-c3ncccc3C(F)(F)F)cnc2N)CC1 4670 ng/mL

----------
# protocol.summary: Plasma pharmacokinetics (LC-MS/MS)
# Assay type: in vivo, human
# run.parameters: human, plasma, oral, 300 mg, C1D15, 300 mg QD, n=14; read-out: Cmax, Geo-mean
endpoint.name: Cmax (ng/mL)
Give bare numbers, in ng/mL.

Need Cmax, item CC1(N)CCN(c2cccnc2NC(=O)c2nc(-c3ncccc3C(F)(F)F)cnc2N)CC1 3500

----------
# protocol.summary: Plasma pharmacokinetics (LC-MS/MS)
# Assay type: in vivo, human
# run.parameters: human, plasma, oral, 300 mg, C1D1, 300 mg QD, n=15; read-out: Tmax, Median (Min, max)
# Protocol: In the dose escalation part of the study, PK samples were collected at various pre- and post-dose time points on C1D1, D2, D3, D15 and D16. Drug concentrations were assessed using a validated liquid chromatography-tandem mass spectrometry assay.
endpoint.name: Tmax (h)
One number for each entry, in h.

Need Tmax, item CC1(N)CCN(c2cccnc2NC(=O)c2nc(-c3ncccc3C(F)(F)F)cnc2N)CC1 [LXS196] 1

----------
# protocol.summary: Plasma pharmacokinetics (LC-MS/MS)
# Type: in vivo, human
# run.parameters: human, plasma, oral, 200 mg, C1D1, 200 mg QD, n=3; read-out: AUCinf, Mean (SD)
endpoint.name: AUC(0-inf) (ng·h/mL)
Numbers only, in ng·h/mL.

Need AUC(0-inf), item CC1(N)CCN(c2cccnc2NC(=O)c2nc(-c3ncccc3C(F)(F)F)cnc2N)CC1 21600

----------
# protocol.summary: Plasma pharmacokinetics (LC-MS/MS)
# Format: in vivo, human
# run.parameters: human, plasma, oral, 200 mg, C1D15, 200 mg BID, n=5; read-out: Cmax, Median (Min, max)
endpoint.name: Cmax (ng/mL)
Give bare numbers, in ng/mL.

Need Cmax, item CC1(N)CCN(c2cccnc2NC(=O)c2nc(-c3ncccc3C(F)(F)F)cnc2N)CC1 2540

----------
# protocol.summary: Plasma pharmacokinetics (LC-MS/MS)
# Assay type: in vivo, human
# run.parameters: human, plasma, oral, 200 mg, C1D1, 200 mg BID, n=6; read-out: Cmax, Geo-mean
endpoint.name: Cmax (ng/mL)
Answers are plain numbers, in ng/mL.

Need Cmax, item CC1(N)CCN(c2cccnc2NC(=O)c2nc(-c3ncccc3C(F)(F)F)cnc2N)CC1 3270

----------
# protocol.summary: Plasma pharmacokinetics (LC-MS/MS)
# Assay type: in vivo, human
# run.parameters: human, plasma, oral, 200 mg, C1D15, 200 mg QD, n=3; read-out: Cmax, Mean (SD)
endpoint.name: Cmax (ng/mL)
Give bare numbers, in ng/mL.

Need Cmax, item CC1(N)CCN(c2cccnc2NC(=O)c2nc(-c3ncccc3C(F)(F)F)cnc2N)CC1 [LXS196] 2500

----------
# protocol.summary: Plasma pharmacokinetics (LC-MS/MS)
# Assay type: in vivo, human
# run.parameters: human, plasma, oral, 300 mg, C1D1, 300 mg QD, n=15; read-out: T1/2, Mean (SD) (converted)
endpoint.name: half-life (h)
One number for each entry, in h.

Need half-life, item CC1(N)CCN(c2cccnc2NC(=O)c2nc(-c3ncccc3C(F)(F)F)cnc2N)CC1 10.8

----------
# protocol.summary: Plasma pharmacokinetics (LC-MS/MS)
# Assay type: in vivo, human
# run.parameters: human, plasma, oral, 800 mg, C1D1, 800 mg QD, n=1; read-out: AUCinf, Mean (SD)
endpoint.name: AUC(0-inf)
Write the quantity with the unit trailing the number.

Need AUC(0-inf), item CC1(N)CCN(c2cccnc2NC(=O)c2nc(-c3ncccc3C(F)(F)F)cnc2N)CC1 [LXS196] 66200 ng·h/mL

----------
# protocol.summary: Plasma pharmacokinetics (LC-MS/MS)
# Assay type: in vivo, human
# run.parameters: human, plasma, oral, 400 mg, C1D1, 400 mg BID, n=5; read-out: T1/2, Geo-mean (converted)
endpoint.name: half-life (min)
Numbers only, in min.

Need half-life, item CC1(N)CCN(c2cccnc2NC(=O)c2nc(-c3ncccc3C(F)(F)F)cnc2N)CC1 810
